test system: G protein-coupled receptor kinase 6 (Homo sapiens) (UniProt P43250)
Sequence (P43250 whole entry, looked up): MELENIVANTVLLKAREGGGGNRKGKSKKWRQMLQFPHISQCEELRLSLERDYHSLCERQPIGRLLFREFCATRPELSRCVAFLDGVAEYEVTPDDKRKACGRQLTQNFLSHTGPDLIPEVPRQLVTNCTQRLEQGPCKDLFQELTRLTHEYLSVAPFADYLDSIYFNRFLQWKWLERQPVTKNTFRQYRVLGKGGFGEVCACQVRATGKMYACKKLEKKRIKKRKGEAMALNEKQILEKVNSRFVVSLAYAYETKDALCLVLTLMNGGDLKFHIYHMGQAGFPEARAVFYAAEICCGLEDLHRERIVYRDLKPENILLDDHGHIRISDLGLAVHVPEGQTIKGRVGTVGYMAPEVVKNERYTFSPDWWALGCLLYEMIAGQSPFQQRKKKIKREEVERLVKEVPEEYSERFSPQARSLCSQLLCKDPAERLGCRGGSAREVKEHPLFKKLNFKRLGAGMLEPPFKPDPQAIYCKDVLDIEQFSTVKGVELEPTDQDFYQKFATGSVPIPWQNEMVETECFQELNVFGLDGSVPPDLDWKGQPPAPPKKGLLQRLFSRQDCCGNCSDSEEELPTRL
experimental setup: at 1 µM
Each record here notes measured residual activity.
Numbers only here, please. The scale is %.

1. COc1ccc(S(=O)(=O)N(CCO)c2ccccc2CN(C)C/C=C/c2ccc(Cl)cc2)cc1; 91

Item under review: Oc1ccc(Nc2nc(-c3ccc(Cl)cc3)cs2)cc1 . Reported residual activity?
103

Please do the same for COc1cc2ncnc(Nc3ccc(OCc4ccccc4)cc3)c2cc1OC as well.
98

Please do the same for CCCC(=O)Oc1ccc2[nH]c(C(=O)c3cc4ccccc4[nH]3)cc2c1 as well.
93

Please do the same for COc1ccc(OC)c2c(=S)c3ccccc3[nH]c12 as well.
98

====

test system: Fibroblast growth factor receptor 4 (Homo sapiens) (UniProt P22455)
Sequence (P22455 22-802 limits assumed): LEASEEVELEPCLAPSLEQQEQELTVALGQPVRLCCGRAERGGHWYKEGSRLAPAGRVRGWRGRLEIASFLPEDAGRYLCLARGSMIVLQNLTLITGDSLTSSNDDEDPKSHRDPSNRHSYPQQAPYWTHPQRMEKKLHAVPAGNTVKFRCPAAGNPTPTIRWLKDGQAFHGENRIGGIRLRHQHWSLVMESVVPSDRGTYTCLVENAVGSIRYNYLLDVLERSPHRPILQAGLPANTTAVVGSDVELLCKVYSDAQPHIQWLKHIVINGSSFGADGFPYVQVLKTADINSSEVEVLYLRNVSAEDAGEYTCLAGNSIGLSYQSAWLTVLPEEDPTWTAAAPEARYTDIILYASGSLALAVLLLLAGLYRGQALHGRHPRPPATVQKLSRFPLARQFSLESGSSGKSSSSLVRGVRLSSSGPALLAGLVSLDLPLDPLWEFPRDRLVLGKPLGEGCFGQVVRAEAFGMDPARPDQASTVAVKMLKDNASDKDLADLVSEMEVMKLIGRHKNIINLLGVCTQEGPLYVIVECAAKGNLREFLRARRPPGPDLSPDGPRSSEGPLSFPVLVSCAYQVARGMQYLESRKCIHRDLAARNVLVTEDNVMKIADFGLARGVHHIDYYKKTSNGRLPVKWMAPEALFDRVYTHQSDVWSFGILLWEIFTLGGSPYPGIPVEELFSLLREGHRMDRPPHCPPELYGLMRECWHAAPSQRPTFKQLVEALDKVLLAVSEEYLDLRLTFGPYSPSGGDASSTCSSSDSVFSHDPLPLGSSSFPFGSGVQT
experimental setup: at 10 µM
Threshold check on residual activity: at or above 90% gives condition met, strictly below gives condition not met.

1. c1cc(-c2cnn3cc(-c4ccc(OCCN5CCCCC5)cc4)cnc23)ccn1; condition not met

# check: residual activity of CCc1nc(-c2ccc(OC)cc2)[nH]c1-c1ccncc1 is greater than or equal to 90%
condition met

Please do the same for CCn1cnc2c(Nc3cccc(Cl)c3)nc(N[C@@H]3CCCC[C@@H]3N)nc21 as well.
condition not met

Please do the same for C[S+]([O-])c1ccc(-c2nc(-c3ccc(F)cc3)c(-c3ccncc3)[nH]2)cc1 (stereo not given) as well.
condition met

====

test system: Testis-specific serine/threonine-protein kinase 2 (Homo sapiens) (UniProt Q96PF2)
Sequence (Q96PF2 whole entry): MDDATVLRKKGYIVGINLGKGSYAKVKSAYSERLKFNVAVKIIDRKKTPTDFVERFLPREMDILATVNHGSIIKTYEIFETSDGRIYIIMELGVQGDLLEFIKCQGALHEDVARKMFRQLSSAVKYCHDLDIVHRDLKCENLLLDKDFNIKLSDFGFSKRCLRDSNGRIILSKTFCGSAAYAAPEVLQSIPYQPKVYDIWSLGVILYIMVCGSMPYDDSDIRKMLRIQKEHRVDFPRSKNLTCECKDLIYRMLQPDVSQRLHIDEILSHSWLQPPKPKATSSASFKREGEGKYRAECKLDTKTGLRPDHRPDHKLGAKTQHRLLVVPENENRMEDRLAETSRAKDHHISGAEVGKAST
experimental setup: at 1 µM
measurement label: residual activity (%)
Numbers only here, please. The scale is %.

Would you please look over these solved cases?
1. Cn1nc2c3c(cccc31)C(=O)c1ccccc1-2; 79
2. N/C(=N\[N+](=O)[O-])N/N=C\c1ccc(-c2cccc([N+](=O)[O-])c2)o1; 91
3. Nc1nc(Nc2ccc(S(N)(=O)=O)cc2)nn1C(=S)Nc1c(F)cccc1F; 61

Item under review: O=C1NC(=O)c2c1c1c3ccccc3[nH]c1n1cncc21 . Reported residual activity?
83

Please do the same for Nc1ncnc2c1cnn2-c1ccccc1 as well.
93

Please do the same for CSc1nc(-c2ccc(F)cc2)c(-c2ccnc(NC(C)c3ccccc3)c2)[nH]1 (stereo unspecified) as well.
98

====

test system: Mitogen-activated protein kinase 1 (Homo sapiens)
experimental setup: at 10 µM
Description: Millipore: Percentage of residual kinase activity of MAPK1 at 10uM relative to control. Control inhibitor: ERK Inhibitor II at 30.0uM. Buffer: 25 mM Tris pH 7.5, 0.02 mM EGTA
Threshold check on residual activity: at or above 10% gives 1 (yes), strictly below gives 0 (no).

1. O=C1Nc2ccc3ncsc3c2/C1=C/c1c[nH]cn1; 0 (no)
2. CC(C)(C)c1cc(C=C(C#N)C#N)cc(Br)c1O; 1 (yes)
3. C[S+]([O-])c1ccc(-c2nc(-c3ccc(F)cc3)c(-c3ccncc3)[nH]2)cc1 (stereo not drawn); 1 (yes)
4. CC(C)[C@H](CO)Nc1nc(Nc2cccc(Cl)c2)c2ncn(C(C)C)c2n1; 1 (yes)
5. O=c1[nH]c2ccccc2n1C1CCN(Cc2ccc(-c3nc4cc5[nH]cnc5cc4nc3-c3ccccc3)cc2)CC1; 1 (yes)
6. COc1ccc2c(c1)/C(=C/c1cnc[nH]1)C(=O)N2; 1 (yes)

# check: residual activity of CCn1cnc2c(Nc3cccc(Cl)c3)nc(N[C@@H]3CCCC[C@@H]3N)nc21 is greater than or equal to 10%
1 (yes)

Please do the same for COC(=O)[C@@]1(O)C[C@H]2O[C@]1(C)n1c3ccccc3c3c4c(c5c6ccccc6n2c5c31)C(=O)NC4 as well.
0 (no)
